assay-system: CCK receptor (brain, cerebral cortex) (Cavia porcellus)
Construct: Cerebral cortex was dissected and used as a receptor source; from tissue; host or cells: guinea pig cerebral cortex membranes (male Hartley)
Sequence (H0VZC5 1-426): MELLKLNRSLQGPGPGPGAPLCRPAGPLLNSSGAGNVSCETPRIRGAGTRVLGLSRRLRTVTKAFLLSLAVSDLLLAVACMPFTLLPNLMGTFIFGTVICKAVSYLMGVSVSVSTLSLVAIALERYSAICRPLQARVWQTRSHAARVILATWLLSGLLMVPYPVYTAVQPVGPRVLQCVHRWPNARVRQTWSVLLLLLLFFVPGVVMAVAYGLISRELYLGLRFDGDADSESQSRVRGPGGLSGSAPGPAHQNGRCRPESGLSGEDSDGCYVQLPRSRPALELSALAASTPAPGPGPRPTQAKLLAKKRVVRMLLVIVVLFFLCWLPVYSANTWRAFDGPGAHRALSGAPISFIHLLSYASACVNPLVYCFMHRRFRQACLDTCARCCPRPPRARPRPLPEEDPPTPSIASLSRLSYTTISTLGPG
method: biochemical
Format: binding, Male Hartley guinea pigs
study-conditions: IC50 ^125 I-CCK Brain, guinea pig cerebral cortex, ^125 I-CCK-33, 25° C., 2 hours
observation-type: pIC50
As a rule, pIC50 stands for the negative log10 of the concentration, concentration in M.

CN1CC(CC2N=C(c3ccccc3)c3ccccc3N(C)C2=O)c2ccccc21 (stereo not shown) [Example 211]: 4.03
CCCCCc1ccc(C(=O)NC2N=C(c3ccccc3)c3ccccc3NC2=O)cc1 (racemic) [Example 165]: 5.10
O=C(NC1N=C(c2ccccc2F)c2ccccc2NC1=O)c1ccc(C(F)(F)F)cc1 (racemic) [Example 134]: 4.40

Let us move to another entry and its pIC50.
Req: Need pIC50, item CN1C(=O)[C@@H](NC(=O)c2ccc(Br)cc2)N=C(c2ccccc2F)c2ccccc21 [Example 156]
Resp: 5.40

Data origin: patent US4820834A
